system: Mycobacterium tuberculosis Erdman (autoluminescent); test: Einf, fitted maximum growth inhibition of three-drug combination (fraction); higher = stronger maximal inhibition; settings: in vitro model: valerate; time point: constant (~7 days, model-specific)
readout-label: Einf

Field: example entries. Status: answers known.
>  <compound>
CC[C@@H](CO)NCCN[C@@H](CC)CO [ethambutol] + NC(=O)c1cnccn1 [pyrazinamide] + CO[C@H]1/C=C/O[C@@]2(C)Oc3c(C)c(O)c4c(O)c(c(/C=N/N5CCN(C)CC5)c(O)c4c3C2=O)NC(=O)/C(C)=C\C=C\[C@H](C)[C@H](O)[C@@H](C)[C@@H](O)[C@@H](C)[C@H](OC(C)=O)[C@@H]1C [rifampicin]

>  <system>
Mycobacterium tuberculosis Erdman (autoluminescent)

>  <obs-value>
0.854

$$$$
>  <compound>
CC(C)/N=c1\cc2n(-c3ccc(Cl)cc3)c3ccccc3nc-2cc1Nc1ccc(Cl)cc1 [clofazimine] + COc1c(N2C[C@@H]3CCCN[C@@H]3C2)c(F)cc2c(=O)c(C(=O)O)cn(C3CC3)c12 [moxifloxacin] + CO[C@H]1/C=C/O[C@@]2(C)Oc3c(C)c(O)c4c(O)c(c(/C=N/N5CCN(C)CC5)c(O)c4c3C2=O)NC(=O)/C(C)=C\C=C\[C@H](C)[C@H](O)[C@@H](C)[C@@H](O)[C@@H](C)[C@H](OC(C)=O)[C@@H]1C [rifampicin]

>  <system>
Mycobacterium tuberculosis Erdman (autoluminescent)

>  <obs-value>
0.907

$$$$
>  <compound>
CC(C)/N=c1\cc2n(-c3ccc(Cl)cc3)c3ccccc3nc-2cc1Nc1ccc(Cl)cc1 [clofazimine] + CC[C@@H](CO)NCCN[C@@H](CC)CO [ethambutol] + NC(=O)c1cnccn1 [pyrazinamide]

>  <system>
Mycobacterium tuberculosis Erdman (autoluminescent)

>  <obs-value>
0.792

$$$$

Provide reported Einf for each item, in the same order as listed.
1. CC[C@@H](CO)NCCN[C@@H](CC)CO [ethambutol] + NNC(=O)c1ccncc1 [isoniazid] + COc1c(N2C[C@@H]3CCCN[C@@H]3C2)c(F)cc2c(=O)c(C(=O)O)cn(C3CC3)c12 [moxifloxacin]
2. CC[C@@H](CO)NCCN[C@@H](CC)CO [ethambutol] + COc1c(N2C[C@@H]3CCCN[C@@H]3C2)c(F)cc2c(=O)c(C(=O)O)cn(C3CC3)c12 [moxifloxacin] + O=[N+]([O-])c1cn2c(n1)OC[C@@H](OCc1ccc(OC(F)(F)F)cc1)C2 [pretomanid]
3. CC[C@@H](CO)NCCN[C@@H](CC)CO [ethambutol] + CC(=O)NC[C@H]1CN(c2ccc(N3CCOCC3)c(F)c2)C(=O)O1 [linezolid] + CO[C@H]1/C=C/O[C@@]2(C)Oc3c(C)c(O)c4c(O)c(c(/C=N/N5CCN(C6CCCC6)CC5)c(O)c4c3C2=O)NC(=O)/C(C)=C\C=C\[C@H](C)[C@H](O)[C@@H](C)[C@@H](O)[C@@H](C)[C@H](OC(C)=O)[C@@H]1C [rifapentine]

## Output
1. 0.876
2. 0.862
3. 0.828

So, CC[C@@H](CO)NCCN[C@@H](CC)CO [ethambutol] + NC(=O)c1cnccn1 [pyrazinamide] + CO[C@H]1/C=C/O[C@@]2(C)Oc3c(C)c(O)c4c(O)c(c(/C=N/N5CCN(C6CCCC6)CC5)c(O)c4c3C2=O)NC(=O)/C(C)=C\C=C\[C@H](C)[C@H](O)[C@@H](C)[C@@H](O)[C@@H](C)[C@H](OC(C)=O)[C@@H]1C [rifapentine] ? Its Einf was 0.821
